The reported measurements were obtained from patent US20060111341A1.

target: Acetylcholinesterase (Homo sapiens); test: biochemical
Sequence (P22303 32-614): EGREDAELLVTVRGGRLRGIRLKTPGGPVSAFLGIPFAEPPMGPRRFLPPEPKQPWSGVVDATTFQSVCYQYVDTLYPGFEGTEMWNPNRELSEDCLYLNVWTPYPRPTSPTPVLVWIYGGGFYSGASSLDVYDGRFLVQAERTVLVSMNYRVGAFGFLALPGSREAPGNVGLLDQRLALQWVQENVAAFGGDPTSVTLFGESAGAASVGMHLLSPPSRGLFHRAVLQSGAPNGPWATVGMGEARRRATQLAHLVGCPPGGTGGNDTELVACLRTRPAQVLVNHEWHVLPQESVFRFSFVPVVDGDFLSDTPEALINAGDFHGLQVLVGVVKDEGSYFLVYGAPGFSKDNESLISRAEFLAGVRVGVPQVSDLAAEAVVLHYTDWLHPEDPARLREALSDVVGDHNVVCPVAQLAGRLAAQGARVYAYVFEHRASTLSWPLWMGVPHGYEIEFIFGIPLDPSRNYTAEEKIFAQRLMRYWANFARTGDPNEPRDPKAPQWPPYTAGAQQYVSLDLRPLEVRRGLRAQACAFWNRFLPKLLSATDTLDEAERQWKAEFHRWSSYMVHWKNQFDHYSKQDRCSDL
pIC50: −log10 of the molar value.
Binary call on pIC50: Yes from 5 upward, No beneath that.

## Task Is the recorded value of pIC50 equal to or greater than 5 for this compound? COc1cc(C)c2c3c1OC1C[C@H](O)C=CC31CC[N+](C)(Cc1ccccc1)C2 (mixture of isomers)
## Result No

## Task Can COc1cc(C)c2c3c1OC1C[C@@H](O)C=CC31CCN(C)C2 (mixture of isomers) be said to have pIC50 at or above 5?
## Result No

## Task Record COC(=O)/C=C(\C(=O)OC)N1CCC23C=C[C@H](O)CC2Oc2c(OC)ccc(c23)C1 (mixture of isomers) ; criterion: pIC50 no lower than 5. Met?
## Result No

## Task Is reported pIC50 greater than or equal to 5 here: COc1ccc2c3c1OC1C[C@@H](O)C=CC31CCN(/C(=N/C#N)SC)C2 (mixture of isomers)
## Result No

## Task Hi team, for C#CC[N+]1(C)CCC23C=C[C@@H](O)CC2Oc2c(OC)cc(C)c(c23)C1 (mixture of isomers) , is the recorded pIC50 at or above 5?
## Result No

## Task Test whether the compound `COc1ccc2c3c1O[C@H]1C[C@@H](O)C=C[C@@]31CCN(C(=O)OC(C)(C)C)C2` records pIC50 of 5 or higher.
## Result No

## Task Identify whether the reported pIC50 of the following compound is 5 or greater: CNC(=S)N1CCC23C=C[C@H](O)CC2Oc2c(OC)cc(Br)c(c23)C1 (mixture of isomers)
## Result No

## Task Please indicate if the recorded pIC50 for `COc1ccc2c3c1O[C@H]1C[C@H](N)C=C[C@@]31CCN(C)C2` meets or exceeds 5.
## Result No

## Task In plain terms: is recorded pIC50 at least 5 for `COc1ccc2c3c1O[C@H]1C[C@@H](O)C=C[C@@]31CC[N+](C)=C2` ?
## Result Yes

## Task Exam item: decide whether the reported pIC50 for C=CCN1CCC23C=C[C@H](O)CC2Oc2c(OC)cc(C)c(c23)C1 (mixture of isomers) is at least 5.
## Result No

## Task Is pIC50 for `CNC(=S)N1CC[C@@]23C=C[C@H](O)C[C@@H]2Oc2c(OC)ccc(c23)C1` at or above 5?
## Result No

## Task Kindly determine if pIC50 recorded for COc1ccc2c3c1OC1C[C@@H](O)C=CC31CCN(C(=O)NC(C)(C)C)C2 (mixture of isomers) is above or exactly 5.
## Result Yes

## Task I'd appreciate it if you could say whether COc1ccc2c3c1O[C@H]1C[C@@H](O)C=C[C@@]31CCN(CCCCN1C(=O)c3ccccc3S1(=O)=O)C2 [Nr 165] has pIC50 at least equal to 5.
## Result Yes

## Task I'd appreciate it if you could say whether COc1ccc2c3c1OC1C[C@@H](O)C=CC31CCN(c1ncccn1)C2 (mixture of isomers) has pIC50 at least equal to 5.
## Result No

## Task In plain terms: is recorded pIC50 at least 5 for COc1ccc2c3c1OC1C[C@@H](O)C=CC31CCN(C(=O)Nc1ccc3ccccc3c1)C2 (mixture of isomers) ?
## Result No

## Task Record COc1ccc2c3c1O[C@H]1C[C@@H](O)C=C[C@]31CC[N+](C)(CCN1CCOCC1)C2 (stereo partly drawn) ; criterion: pIC50 no lower than 5. Met?
## Result Yes

## Task Is it the case that `COc1ccc2c3c1O[C@H]1C[C@@H](O)C=C[C@@]31CCN(CCN)C2` has pIC50 reaching or exceeding 5?
## Result Yes

* * *

This document collects IC50 values reported for Butyrylcholinesterase (Homo sapiens).
Report the value in nM with no unit label.

Reported IC50 for `COc1cc(N)c2c3c1O[C@H]1C[C@@H](O)C=C[C@@]31CCN(C)C2` was 4900

Query COc1ccc2c3c1OC1C[C@@H](O)C=CC31CCN(/C(=N/C#N)SC)C2 (mixture of isomers) yields IC50 of 540

For COc1cc(C)c2c3c1OC1C[C@H](O)C=CC31CC[N+](C)(Cc1ccccc1)C2 (mixture of isomers) the compound record lists IC50 as 3000

The recorded IC50 for entry COc1cc2c(cc1OC)C(=O)C(CCCCN1CC[C@@]34C=C[C@H](O)C[C@@H]3Oc3c(OC)ccc(c34)C1)C2 (stereo partly shown) equals 800

* * *

molecular target: UniProtKB P22303; test: biochemical
measured-parameter: IC50

Summary for this molecule, COc1cc(C)c2c3c1OC1C[C@@H](O)C=CC31CC[N+](C)(C)C2 (mixture of isomers) [Nr 107] : IC50 is > 100 µM

Per the record, COc1ccc2c3c1OC1C/C(=N/NC(N)=O)C=CC31CCN(C)C2 (racemic) [Nr 32] has IC50 of > 100 µM

According to the records, this molecule COc1cc(Br)c2c3c1OC1C[C@@H](O)C=CC31CCN(CCC#N)C2 (mixture of isomers) [Nr 72] displays IC50 of > 100 µM

Sample COc1cc(Br)c2c3c1O[C@@H]1C[C@H](O)C=C[C@]31CCN(C(=O)CCN1CCCC1)C2 [Nr 271] ; IC50 observed: > 100 µM

Lookup result for COc1cc(Br)c2c3c1OC1C[C@@H](O)C=CC31CCN(C(=O)NC(C)C)C2 (mixture of isomers) [Nr 70] ; measured IC50: > 100 µM

* * *

measured-parameter: IC50

Let me check: CCN(CC)c1nc(N(CC)CC)nc(N2CCC34C=C[C@H](O)CC3Oc3c(OC)ccc(c34)C2)n1 (mixture of isomers) , system Butyrylcholinesterase (Homo sapiens, UniProt P06276), measured IC50 is > 100 µM

Bench note, Butyrylcholinesterase (Homo sapiens, UniProt P06276): COc1ccc2c3c1OC1C[C@@H](O)C=CC31CCN(C(=O)N[C@H](C)c1ccccc1)C2 (mixture of isomers) , IC50 reads > 100 µM

// IC50 (Butyrylcholinesterase (Homo sapiens, UniProt P06276)) for `CCOC(=O)NN(CN1CC[C@@]23C=C[C@H](O)C[C@@H]2Oc2c(OC)ccc(c23)C1)C(=O)OCC` = > 100 µM

* * *

Endpoint: log10 of IC50. System: Butyrylcholinesterase (Homo sapiens). Items follow.
Sequence (P06276 29-602): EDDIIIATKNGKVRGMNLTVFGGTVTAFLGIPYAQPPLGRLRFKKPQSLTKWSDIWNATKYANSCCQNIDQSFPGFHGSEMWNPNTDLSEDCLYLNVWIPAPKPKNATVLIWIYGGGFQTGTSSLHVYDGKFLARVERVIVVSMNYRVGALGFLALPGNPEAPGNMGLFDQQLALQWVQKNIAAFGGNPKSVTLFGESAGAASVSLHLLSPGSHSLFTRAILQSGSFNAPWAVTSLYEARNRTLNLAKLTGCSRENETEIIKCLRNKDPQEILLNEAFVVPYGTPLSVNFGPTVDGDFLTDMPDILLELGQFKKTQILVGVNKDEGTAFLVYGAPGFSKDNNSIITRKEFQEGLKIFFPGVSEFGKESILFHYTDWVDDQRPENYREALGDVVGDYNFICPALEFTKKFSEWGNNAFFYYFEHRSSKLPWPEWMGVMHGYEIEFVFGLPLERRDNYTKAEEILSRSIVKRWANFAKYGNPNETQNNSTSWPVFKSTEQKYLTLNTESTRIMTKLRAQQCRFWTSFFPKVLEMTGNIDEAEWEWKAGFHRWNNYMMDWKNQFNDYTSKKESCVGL
For clarity, the numbers are log10 values of IC50 expressed in µM.

Short answer for `COc1ccc2c3c1O[C@H]1C[C@@H](O)C=C[C@@]31CCN(CCCO)C2` : log10 of IC50 was 0.70

Measured log10 of IC50, `COc1ccc2c3c1O[C@H]1C[C@@H](OC(=S)Nc4ccccc4)C=C[C@@]31CCN(C)C2` : 1.48

The compound listed as `COc1ccc2c3c1O[C@H]1C[C@@H](O)C=C[C@@]31CCN(CCCN1CCCCC1)C2` has a reported log10 of IC50 of 0.18

Note to self: log10 of IC50 recorded for CCOC(=O)CCN1CCC23C=C[C@H](O)CC2Oc2c(OC)ccc(c23)C1 (mixture of isomers) was 1.23

log10 of IC50 for COc1ccc2c3c1OC1C/C(=N/NC(N)=O)C=CC31CCN(C)C2 (racemic) is 1.30

Memo: CNC(=S)N1CCC23C=C[C@H](O)CC2Oc2c(OC)ccc(c23)C1 (mixture of isomers) , reported log10 of IC50: 1.48

Lookup result for C#CC[N+]1(C)CCC23C=C[C@@H](O)CC2Oc2c(OC)cc(C)c(c23)C1 (mixture of isomers) ; measured log10 of IC50: 1.65

So, COc1ccc2c3c1OC1C[C@@H](O)C=CC31CCN(c1ccnc(OCCCN(C)C)n1)C2 (mixture of isomers) ? Its log10 of IC50 was 1.56

Value of measured log10 of IC50 for the entry `COc1cc(Br)c2c3c1O[C@@H]1C[C@H](O)C=C[C@]31CCN(C(=O)CCN1CCCC1)C2` : 1.82

Noted for COc1ccc2c3c1OC1C[C@@H](O)C=CC31CCN(c1nc(OCCCN(C)C)nc(OCCCN(C)C)n1)C2 (mixture of isomers) : its log10 of IC50 reads 1.60

Memo: COc1ccc2c3c1O[C@H]1C[C@@H](O)C=C[C@@]31CC[N+](C)(CC=C(C)C)C2 (stereo partly shown) , reported log10 of IC50: -0.68

# log10 of IC50 (compound: COc1cc(Br)c2c3c1OC1C[C@@H](O)C=CC31CCN(CC(N)=O)C2 (mixture of isomers) ) is 1.18

Briefly, log10 of IC50 measured for `COc1ccc2c3c1O[C@H]1C[C@@H](O)C=C[C@@]31CCN(c1cccs1)C2` : -0.27

The compound listed as COc1ccc2c3c1O[C@H]1C[C@@H](O)C=C[C@@]31CCN(CCCN1CC3CC1CN3c1ccc(F)cc1)C2 (stereo partly shown) has a reported log10 of IC50 of 0.38

Input COc1cc(Br)c2c(c1O)C13C=C[C@@H](O)CC1N(CC3)C2 (mixture of isomers) . Output log10 of IC50: 1.26

The recorded log10 of IC50 for `COc1ccc2c3c1O[C@H]1C[C@@H](O)C=C[C@@]31CCN(C(=O)NC(C)(C)C)C2` is 0.85

Sure, the documented log10 of IC50 for `COc1ccc2c3c1O[C@H]1C[C@@H](O)C=C[C@@]31CCN(C1CCN(C(=O)c3ccccc3)CC1)C2` is 0.48

The compound identified as COc1ccc2c3c1O[C@H]1C[C@@H](O)C=C[C@@]31CC[N+](C)(CC1CC1)C2 (stereo partly shown) registered its log10 of IC50 at 0.56

The recorded log10 of IC50 for entry `COc1ccc2c3c1O[C@H]1C[C@@H](OC(=O)N[C@H](C)c4ccccc4)C=C[C@@]31CCN(C)C2` equals 1.85

Lab note: COc1ccc2c3c1OC1C[C@@H](O)C=CC31CCN(c1ncccn1)C2 (mixture of isomers) gave log10 of IC50 of 1.48

Entry under test: `COc1ccc2c3c1O[C@H]1C[C@@H](O)C=C[C@@]31CCN(CCC(=O)OC(C)(C)C)C2` . Its log10 of IC50 was 0.60
